Tested on: P388 leukemia ip, CD2F1 mice, survival T/C
Test: NCI In Vivo Anticancer Drug Screen. Data for tumor model P388 Leukemia (intraperitoneal) in CD2F1 (CDF1) mice
Details: endpoint: median survival time; dose: 400.0 mg/kg/injection; schedule: Q04DX003 (ip); vehicle: saline with Tween-80; higher = longer survival
Toxic doses and inconclusive results are not listed.
assayReadout: T/C

Value sought for every listed molecule: T/C.
1. C1=C(c2ccccc2)N=C(c2nncc3ccccc23)C1(c1ccccc1)c1ccccc1
2. CC(=N\O)/C(=N/O)c1ccccc1

1: 96 % of control; 2: 104 % of control

----------
System: P388 leukemia ip, CD2F1 mice, survival T/C
Assay: NCI In Vivo Anticancer Drug Screen. Data for tumor model P388 Leukemia (intraperitoneal) in CD2F1 (CDF1) mice
Settings: endpoint: median survival time; dose: 200.0 mg/kg/injection; schedule: Q04DX003 (ip); vehicle: Klucel (hydroxypropylcellulose) (HPC)
Toxic doses and inconclusive results are not listed. How the source made its calls: active means survival T/C of 150% or more; inactive means T/C below 125% in these data.
Parameter call: string, one of true (1) for active, false (0) for inactive

CSC(=O)N(C)C(=O)Nc1cccc([N+](=O)[O-])c1 :: false (0)
O=C(c1ccccc1)N1C2C=C(c3ccccc3)CC1CC2 (stereo not given) :: false (0)
O=C1c2ccccc2C(=O)c2c(NCCNCCO)ccc(NCCNCCO)c21 :: true (1)
C/C(=N\NC(=S)Nc1nccs1)c1ccccn1 :: false (0)
COc1ccc(CN2COc3c(cc(Cl)c4cccnc34)C2)cc1 :: false (0)

Record lookup: outcome of this test for C[C@@H]1CC(c2ccc(Cl)cc2)[C@@H](c2ccccc2)C(=O)O1 (stereo not given in full) ?
false (0)

Record request — test call for CC1(C#N)CCCC(c2ccccc2)(c2ccccc2)C1=O (stereo not given)
false (0)

Recorded test call requested for Brc1cc(-c2ccccc2)on1
false (0)

Which result was noted for this compound in the test: O=C1CC(O)(c2ccccc2)CS1 (stereo not given)
false (0)

Record request — test call for O=C(O)CCCC12CCC(CCCC(=O)O)(CC1)CC2
false (0)

Which outcome was entered for the compound CN(C)C1CC(N2c3ccccc3Sc3ccc(Cl)cc32)C1 (stereo not given) in this test?
false (0)

Answer briefly: the call reported for C=CCCC(=O)SC(C)(C)C in this assay.
false (0)

Hey, what did the test say about OCC1(CO)C(O)C2CCN1CC2 (stereo not given) ?
false (0)

Per the assay record, what outcome was assigned to [N-]=[N+]=CC(=O)c1ccc(Cl)cc1 ?
false (0)

Kindly provide the recorded test outcome for the following compound: CC1COCCOC(=O)COCC(=O)OCCOCC(C)O1 (stereo not given)
false (0)

----------
I'd appreciate it if you could supply T/C values for the items below.
Test system: P388 leukemia ip, CD2F1 mice, survival T/C
Assay: NCI In Vivo Anticancer Drug Screen. Data for tumor model P388 Leukemia (intraperitoneal) in CD2F1 (CDF1) mice
Conditions: endpoint: median survival time; dose: 50.0 mg/kg/injection; schedule: Q01DX009 (ip); vehicle: Klucel (hydroxypropylcellulose) (HPC); higher = longer survival
Inconclusive results and toxic doses are left out.

Cc1cccc(N=Nc2ccc(N=Nc3c(O)ccc4ccccc34)cc2C)c1 :: 97 % of control

Dear colleague, could you send me T/C for each of the items below? Thanks.
1. CCOP(O)(=S)OCC.[Ti]
2. COc1ccc(Cl)cc1C(=O)NCCc1ccc(CCC(=O)O)cc1
3. CC(C)NCC(O)COc1ccccc1C1CCCCC1 (configuration not stated)
4. COc1ccc(C(=O)c2ccccc2)cc1
5. CC(C)(C)N=C(CCN1CCN(CCC(=NC(C)(C)C)Nc2ccc(Cl)cc2)CC1)Nc1ccc(Cl)cc1
6. O=C(O)c1ccccc1SSc1ccccc1C(=O)O
7. CC(=O)Oc1c(C)c2c(O)c3c1C1=C(OCOC1=C(C)C3=O)C(C)=CC(C)(O)C(O)C(C)C(O)C1C(=O)OC(C(C)/C=C\C=C(C)C(=O)N2)C(C)C1O (configuration not stated)
8. O=C1Cc2ccccc2CC1CC1Cc2ccccc2CC1=O (configuration not stated)

["96 % of control", "99 % of control", "104 % of control", "105 % of control", "87 % of control", "96 % of control", "99 % of control", "87 % of control"]

Provide T/C values for the following items, in order.
1. O=C(CC(=O)Nc1ccccc1)Cc1ccccc1
2. CN(C)CCNC(c1ccccc1)C(O)c1ccccc1 (configuration not stated)
3. CCCCCCCCCCCC[As](CCCCCCCCCCCC)SCC1OC(OC(C)=O)C(OC(C)=O)C(OC(C)=O)C1OC(C)=O (configuration not stated)
4. CC1=C(N2CC2)C(=O)c2ccccc2C1=O

102 % of control
100 % of control
111 % of control
93 % of control

Give T/C for all molecules that follow.
1. CCN1CSC(=S)N(Cc2ccccc2)C1
2. COc1cccc(C2C(C#N)C(=O)NC(=O)C2C#N)c1 (configuration not stated)
3. O=C(O)CC1Sc2nc3c(n2C1(O)c1ccccc1)-c1ccccc1CC3 (configuration not stated)
4. Cln1c2c(c3ccccc31)CN(Cc1ccccc1)CC2

["99 % of control", "102 % of control", "98 % of control", "105 % of control"]

I have 3 molecules here; please give me T/C for each one.
1. C[n+]1ccc(/C(C#N)=N/O)cc1
2. COc1ccc(C(=O)N2CC(OC(C)=O)=CC2=O)cc1
3. CC(C)=CCCC(C)(OC1OC(CO)C(O)C(O)C1O)C1CCC2(C)C1C(O)CC1C3(C)CCC(O)C(C)(C)C3C(OC3OC(CO)C(O)C(O)C3OC3OC(C)C(O)C(O)C3O)CC12C (configuration not stated)

1: 119 % of control; 2: 107 % of control; 3: 100 % of control

For each of the molecules below, state T/C.
1. Cc1nn(-c2nc(-c3ccc(Br)cc3)cs2)c(C)c1C
2. N#C/C(=C\c1c(Cl)cccc1Cl)c1nc2ccccc2[nH]1

["105 % of control", "115 % of control"]

----------
System: P388 leukemia ip, CD2F1 mice, survival T/C
Assay: NCI In Vivo Anticancer Drug Screen. Data for tumor model P388 Leukemia (intraperitoneal) in CD2F1 (CDF1) mice
Settings: endpoint: median survival time; dose: 100.0 mg/kg/injection; schedule: Q01DX001 (ip); vehicle: saline; higher = longer survival
Inconclusive results and toxic doses are left out.
For each of the compounds below, state its T/C.

CCCCNC(=O)N(CC)c1ccccc1 :: 109 % of control

Count: 3. Required value per item: T/C.
1. CS(=O)(=O)OCC(O)C(O)COS(C)(=O)=O (stereo unspecified)
2. COC(=O)C1CSC(c2c(COP(=O)(O)O)cnc(C)c2O)N1 (stereo unspecified)
3. Nc1nc(N)nc(-c2cccnc2)n1

1: 100 % of control; 2: 103 % of control; 3: 109 % of control

Batch request: T/C per item, same order as input.
1. CCC1(CC)C(=O)N(C(C)=O)C2(C)C(=O)NC(=O)N2C1=O (stereo unspecified)
2. C=C1CC2(CC(C)CCC2C(=C)C)OC1=O (stereo unspecified)
3. CCOP(=O)(Nc1ccccc1OC)OCC
4. CC(=O)Oc1c2c(c(C)c3ccccc13)C(=O)c1cccnc1C2=O
5. COCC1(C)CCCC2(C)C1CCC13CCC(O)CC12O3 (stereo unspecified)

1. 100 % of control
2. 101 % of control
3. 110 % of control
4. 98 % of control
5. 105 % of control

Please look at the items below and tell me T/C for each one, in order.
1. CCCCCCOC(=O)Nc1nnc(SSC2=NN=CC2NC(=O)OCCCCCC)s1 (stereo unspecified)
2. COc1cccc2nncn12

1: 91 % of control; 2: 100 % of control

----------
System: P388 leukemia ip, CD2F1 mice, survival T/C
Experiment: NCI In Vivo Anticancer Drug Screen. Data for tumor model P388 Leukemia (intraperitoneal) in CD2F1 (CDF1) mice
Details: endpoint: median survival time; dose: 240.0 mg/kg/injection; schedule: Q01DX005 (ip); vehicle: saline with Tween-80; higher = longer survival
Inconclusive results and toxic doses are left out.
assayReadout: T/C

Record excerpt, results attached:
CCOC(=O)c1ccc(NC(=O)Oc2ccc(C(=O)OC)cc2)cc1 :: 103 % of control
CCOC(=O)C1=C(O)C2(CC(C)=C(C)CS2=O)SC1=Nc1ccccc1 (centres undefined) :: 104 % of control

Give me T/C for each of these compounds, listed below.
1. COc1cc(C2C(C)=COc3cc4c(cc32)OCO4)cc(OC)c1OC (centres undefined)
2. CC1(c2ccccc2)CCC(=O)NC1=O (centres undefined)
3. CCC1OC(=O)C2C(c3ccccc3)=NOC2[C@H]1C (some centres undefined)
4. CCOC(=O)C1=NN(c2ccccc2)C(C)(C(=O)OC)C1 (centres undefined)
5. Cc1no[n+]([O-])c1C(N)=O

["93 % of control", "106 % of control", "94 % of control", "95 % of control", "102 % of control"]

For each of the compounds below, state T/C.
1. CCCN1C(=O)CC(c2ccc(OC)c(OC)c2)C1=O (centres undefined)
2. COC(=O)C1=C(OC)C(C(=O)c2ccccc2)NC1=O (centres undefined)

["90 % of control", "99 % of control"]
